test system: MDA-MB-231 breast; assay: NCI tumour cell line growth inhibition, 48 h
RESULT_TYPE: GI50

Could you share which GI50 value was measured for CCN(CC)CC[n+]1cc2cc(OC)c(OC)cc2c2ccc3cc4c(cc3c21)OCO4 ?
709 nM

Another: CC#CC(=O)N1CC[C@@H](n2c(=O)n(-c3ccc(Oc4ccccc4)cc3)c3c(N)ncnc32)C1
19500 nM

Another: CC(CN)[C@@H]1CC[C@]2(CO)CC[C@]3(C)[C@H](CC[C@@H]4[C@@]5(C)CCC(N)C(C)(C)[C@@H]5CC[C@]43C)[C@@H]12 (stereo partly drawn)
1500 nM

---

test system: MDA-MB-231 breast; assay: NCI tumour cell line growth inhibition, 48 h
Where a SMILES comes first, the peptide text is derived from it. [ ]: non-standard residue; d: D form. The star is where a group is joined. Bn2Val = CC(C)[C@@H](C(=O)*)N(Cc1ccccc1)Cc1ccccc1; NH(3,4-diMeO-benzyl) = COc1ccc(CN*)cc1OC; NMeV = CN[C@H](C(=O)O)C(C)C
Hi there, I'd appreciate the recorded TGI for every entry that follows.

Notebook: pull reported TGI for MDA-MB-231 breast, entry O=C(c1ccccc1)C1C[C@H]2CO[C@H](c3ccccc3)N2C1=O (some centres undefined)
> 100 µM

Another: Nc1ccc(-c2ccc(-c3nc4cc(Cl)c(Cl)cc4[nH]3)cc2)cc1
> 49.6 µM

Another: Clc1ccc2c(NCCNc3nc(N4CCCC4)nc4ccccc34)ccnc2c1
2.24 µM

Another: O=C1OC(CS(=O)(=O)c2ccccc2)CC1O (centres undefined)
> 100 µM

Another: CN(C)c1nc(=NCc2cccnc2)ss1
> 10 µM

Another: COc1cnc2c(c1)C(=O)c1c-2n(CCCNC(C)C)c(=O)c2cc([N+](=O)[O-])ccc12
0.438 µM

Another: Nc1nc(-c2cccs2)cs1
> 100 µM

Another: Cc1nc2sc(C(=O)Nc3cccc(Br)c3)c(N)c2cc1C(O)c1ccccc1 (centres undefined)
16.4 µM

Another: COc1ccc(CNC(=O)[C@@H]2CCCN2C(=O)[C@@H]2CCCN2C(=O)[C@H](C(C)C)N(C)C(=O)[C@@H](NC(=O)[C@H](C(C)C)N(Cc2ccccc2)Cc2ccccc2)C(C)C)cc1OC (Bn2Val-V[NMeV]PP-{NH(3,4-diMeO-benzyl)})
42.3 µM

Another: CCOC(=O)c1cc2cc(C)cc(C(=O)c3ccc([N+](=O)[O-])cc3)c2[nH]1
> 100 µM

Another: COc1cc(/C=C2\C[C@H]3[C@@H]4CC=C5C[C@@H](OC(C)=O)CC[C@]5(C)[C@H]4CC[C@]3(C)[C@H]2OC(C)=O)ccc1OCCN1CCCCC1
25.4 µM

Another: CCOC(=O)N1C=CC(=C2C(=C3C=CN(C(=O)OCC)C=C3)C(=C3C=CN(C(=O)OCC)C=C3)C2=C2C=CN(C(=O)OCC)C=C2)C=C1
70.5 µM

Another: Nc1c2ccccc2nc2ccccc12 (tested in a mixture with another compound)
5.84 µM

Another: CCN(CC)C(=S)SS(=O)(=O)c1ccc(NC(C)=O)cc1
36.4 µM

Another: Cn1c(=O)c2c(nc3n(C)c(=O)c4ccccc4n23)n(C)c1=O
> 100 µM

Another: COc1ccc(C2=NN(C(=O)c3cccnc3)C(O)(c3cc(F)c(Cl)cc3Cl)C2)cc1OC (centres undefined)
37.9 µM

Another: CCN(CC)CCCNc1ncc(C)c2c1c1ccc3c(O)cccc3c1n2C
3.42 µM

Another: Cn1c(=O)c2c(nc(NCCNc3nc4c(c(=O)n(C)c(=O)n4C)n3C)n2C)n(C)c1=O
> 100 µM

Another: COC(=O)/C=C1/OC(c2ccc(C)cc2)=C(Cl)C1=O
33.6 µM

---

tested on: NCI-H226 lung; assay: NCI tumour cell line growth inhibition, 48 h
RESULT_TYPE: TGI (µM)
Enter your answer as a number in µM; do not include the unit.

Could you share which TGI value was measured for CC1C(O)Oc2cc3c(cc2C1c1ccccc1O)OCO3 (stereo not drawn) ?
69.2

Another: CC(C)N1[C@@H]2CCCC[C@H]2N(C(C)C)P1(=O)C(=O)/C=C/c1ccccc1
24.6

---

test system: SW-620 colon; assay: NCI tumour cell line growth inhibition, 48 h
Hi there, I'd appreciate the recorded TGI for every entry that follows.

Could you share which TGI value was measured for COCN1C(=O)[C@@H]2CCCN2C(=O)c2ccc([N+](=O)[O-])cc21 ?
> 100 µM

Another: Cc1cc(O)c2c(c1)CC(O)C1=C2C(=O)c2c(O)ccc(OC3CC(O)C(OC4CC(OC5CCC(O)C(C)O5)C(O)C(C)O4)C(C)O3)c2C1=O (stereo not given)
3.14 µM

Another: Cc1c(CC/C(=N\Nc2ccc([N+](=O)[O-])cc2[N+](=O)[O-])c2ccccc2)c2ccccc2n1C
> 100 µM

Another: CCOC(=O)c1cc2cc(C)cc(C(=O)c3ccc([N+](=O)[O-])cc3)c2[nH]1
> 100 µM

Another: ClCCN(CCCl)c1ccc(CNCCCNCc2ccc(N(CCCl)CCCl)cc2)cc1
> 100 µM

Another: O=C(O)C1=NN(c2ccc(S(=O)(=O)O)cc2)C2(C1)SCC(=O)N2c1nc2ccccc2s1 (stereo not given)
> 100 µM

Another: O=C(O)c1ccccc1Nc1ccc2nnc(-c3ccncc3)n2n1
36 µM

Another: Cc1ccc(C2=NN(c3ccc(S(N)(=O)=O)cc3)C(c3cn(-c4ccccc4)nc3-c3ccccc3)C2)cc1 (stereo not given)
> 100 µM

Another: COc1ccc(C)cc1Nc1nnc(-c2ccc(N)cc2)s1
> 100 µM

Another: Cc1ccc(/C=N/NS(=O)(=O)c2ccc(/C=C3\NC(=O)NC3=O)cc2)cc1
> 100 µM

---

system: EKVX NSCLC; assay: NCI tumour cell line growth inhibition, 48 h; in the data active = GI50 below about 0.43 µM; inactive = the rest
// one of YES = active, NO = inactive, no free text

Given Nc1ccc(-c2ccc(-c3nc4cc(Cl)c(Cl)cc4[nH]3)cc2)cc1 , state the outcome it received in this test.
NO

Another: CC#CC(=O)N1CC[C@@H](n2c(=O)n(-c3ccc(Oc4ccccc4)cc3)c3c(N)ncnc32)C1
NO

Another: C/C(=C\c1ccn(-c2ccc(N)cc2F)n1)[C@@H]1C[C@@H]2O[C@]2(C)CCC[C@H](C)[C@H](O)[C@@H](C)C(=O)C(C)(C)[C@@H](O)CC(=O)O1
YES

Another: C=CCSSc1ncnc2c1ncn2C1OC(CO)C(O)C1O (stereo not drawn)
NO

Another: C=C(C)[C@@H]1CC[C@]2(C(N)=O)CC[C@]3(C)[C@H](CC[C@@H]4[C@@]5(C)C/C(=C/c6cccnc6)[C@H](O)C(C)(C)[C@@H]5CC[C@]43C)[C@@H]12
NO

Another: Fc1cccc(-c2[nH]nc3nc(Nc4cccnc4)sc23)c1
NO

Another: CC(CN)[C@@H]1CC[C@]2(CO)CC[C@]3(C)[C@H](CC[C@@H]4[C@@]5(C)CCC(N)C(C)(C)[C@@H]5CC[C@]43C)[C@@H]12 (stereo partly drawn)
NO

Another: Cc1nn(C)c2cc(N(C)c3ccnc(Nc4cccc(S(N)(=O)=O)c4)n3)ccc12
NO

---

tested on: SR leukemia; test: NCI tumour cell line growth inhibition, 48 h
RESULT_TYPE: TGI

Could you share which TGI value was measured for ClCCN(CCCl)c1ccc(CNCCCNCc2ccc(N(CCCl)CCCl)cc2)cc1 ?
1.29 µM

Another: C/C(=N/NC(N)=S)C(CN(C)C)C(C1=C(O)c2ccccc2OC1)c1ccccc1 (centres undefined)
> 100 µM

Another: OC(CC(O)(C(F)(F)F)C(F)(F)F)C(O)c1ccco1 (centres undefined)
> 10 µM

Another: COC1=C(OC)[C@]2(OC)c3c(O)c(OC)c4c(c3O[C@@]23O[C@@H](c2ccccc2)CC=C3C1=O)[C@@H](O)C[C@H](c1ccccc1)O4
0.612 µM

Another: COCN1C(=O)[C@@H]2CCCN2C(=O)c2ccc([N+](=O)[O-])cc21
> 100 µM

Another: COc1ccc(C2CC(=O)c3c(O)c(OC)c(OC)c(OC)c3O2)cc1O (centres undefined)
> 100 µM

Another: CC(C)(C)c1cc(-c2nc3c(F)c(F)c(F)c(F)c3[nH]2)cc(C(C)(C)C)c1O
> 100 µM

Another: C=C(CN)CO[Si](C)(C)C(C)(C)C
> 100 µM

Another: O=C(Nc1ccc(Cl)cc1)NS(=O)(=O)c1c(-c2ccccc2)oc2ccccc2c1=O
> 100 µM

Another: COc1cc2c(cc1OC)C(=O)/C(=C/c1ccc([N+](=O)[O-])cc1)CC2
> 10 µM

Another: Nc1ccc(-c2ccc(-c3nc4cc(Cl)c(Cl)cc4[nH]3)cc2)cc1
45.2 µM

Another: C=C(C)[C@@H]1CC[C@]2(C(N)=O)CC[C@]3(C)[C@H](CC[C@@H]4[C@@]5(C)C/C(=C/c6cccnc6)[C@H](O)C(C)(C)[C@@H]5CC[C@]43C)[C@@H]12
> 100 µM

Another: O=c1[nH]c2cc([N+](=O)[O-])ccc2nc1/C=C(\O)c1ccc(Cl)cc1
38.9 µM

Another: COc1cc2c(cc1OC)-c1cc3ccc(OC)c(OC)c3c[n+]1CC2
> 100 µM
